- ASSAY OVERVIEW: Primary qHTS for delayed death inhibitors of the malarial parasite plastid, 48 hour incubation
- CONDITION DESCRIPTION: P. falciparum luciferase growth in erythrocytes; series mostly up to 28.7 µM
Screen size: about 310,000 compounds; about 18,000 (5.8%) were called active. Roughly 22% stayed inconclusive and do not appear here. Calls follow the shape of the dose curve; as a rule, active = well fitted inhibition curve with a large enough effect; inconclusive = small, poorly fitted or top-dose-only effect, or another doubt; inactive = no such curve, though single readings can be large or run the other way. Many of the other results were omitted from the sample, so actives are more common in it than they were.
Outcomes: y (active), n (inactive)

[[record]]
compound = "Cc1cccc(N2CCN(c3ccc(NC(=O)/C=C\\C(=O)O)cc3)CC2)c1"
group_label = "y"

[[record]]
compound = "COCCn1c(SCC(=O)Nc2ccc3c(c2)CCC3)nc2ccccc2c1=O"
group_label = "n"

[[record]]
compound = "Cc1cc(C)c2[nH]c(=O)c(C(c3nnnn3Cc3ccc4c(c3)OCO4)N3CCCC3)cc2c1 (stereo unspecified)"
group_label = "y"

[[record]]
compound = "COc1ccc(CCNC(=O)c2c(C)nn(-c3ccccc3)c2Cl)cc1"
group_label = "n"

[[record]]
compound = "COCCCN1C(=O)c2ccc(C(=O)OCC(=O)NCc3ccccc3OC)cc2C1=O"
group_label = "n"

[[record]]
compound = "COC/C=C/C1=CC2=CC(=O)C(C)(OC(=O)CCC(=O)OC)C(=O)C2=CO1 (stereo unspecified)"
group_label = "n"

[[record]]
compound = "COCCN(C(=O)CC1CCCCC1)c1c(N)n(CC(C)C)c(=O)[nH]c1=O"
group_label = "n"

[[record]]
compound = "C=CCN1CCN(C(=O)CCCc2ccccc2)CC1"
group_label = "n"

[[record]]
compound = "O=C(C1CCN(Cc2ccc(Cl)cc2)CC1)N1CCN(Cc2ccc3c(c2)OCO3)CC1"
group_label = "n"

[[record]]
compound = "Cc1cccc(C)c1NC(=O)CSc1nnc(-c2ccccc2)n1Cc1ccc2c(c1)OCO2"
group_label = "n"

[[record]]
compound = "Cc1ccc2nc(N3CCN(C(=O)c4ccco4)CC3)sc2c1"
group_label = "n"

[[record]]
compound = "CN(CCOc1ccc(Br)cc1)CC(=O)Nc1cccc(S(=O)(=O)NC2=NCCC2)c1"
group_label = "n"

[[record]]
compound = "N=c1c2c(-c3ccccc3)c(-c3ccccc3)n(Cc3ccccc3)c2ncn1CCCO"
group_label = "y"

[[record]]
compound = "CCc1ccc(C(=O)OCC(=O)Nc2cccc(S(=O)(=O)NC3=NCCCCC3)c2)cc1"
group_label = "y"

[[record]]
compound = "Cc1ccc(C)c(C(=O)N2CCC(n3nccc3NC(=O)C3CC3)CC2)c1"
group_label = "n"

[[record]]
compound = "CSc1ccc(NC(=O)/C=C/C(=O)O)cc1"
group_label = "n"

[[record]]
compound = "Cc1cccc(N2CCN(C(=O)c3ccccc3NC(=O)C3CCCCC3C(=O)O)CC2)c1 (stereo unspecified)"
group_label = "n"

[[record]]
compound = "Cc1ccc(CN2CCCC(C(=O)c3ccc4c(c3)OCO4)C2)cc1C (stereo unspecified)"
group_label = "n"

[[record]]
compound = "O=C(c1ccc2nc(N3CCOCC3)sc2c1)N1CCN(c2ccc(Cl)cc2)CC1"
group_label = "n"

[[record]]
compound = "CCOc1ccc(-n2c(SCC(N)=O)nnc2-c2ccco2)cc1"
group_label = "n"

[[record]]
compound = "Fc1ccccc1C(c1nnnn1Cc1ccc2c(c1)OCO2)N1CCN(Cc2ccccc2)CC1 (stereo unspecified)"
group_label = "y"


====

- ASSAY OVERVIEW: Primary qHTS for delayed death inhibitors of the malarial parasite plastid, 48 hour incubation
- CONDITION DESCRIPTION: P. falciparum luciferase growth in erythrocytes; series mostly up to 28.7 µM
Among all 310,000 compounds or so, about 18,000 (5.8%) were called active. About 22% were inconclusive and are not listed. Calls follow the shape of the dose curve; as a rule, active = well fitted inhibition curve with a large enough effect; inconclusive = small, poorly fitted or top-dose-only effect, or another doubt; inactive = no such curve, though single readings can be large or run the other way. The sample as a whole holds a higher share of actives than the screen did.
Outcomes: t = active, f = inactive

[[record]]
compound = "COCCCNC(=O)C1CC(=O)N(CCc2ccc(F)cc2)C1 (centres undefined)"
group_label = "f"

[[record]]
compound = "N#Cc1c(-c2ccccc2)nc(SCc2ccc([N+](=O)[O-])cc2)[nH]c1=O"
group_label = "f"

[[record]]
compound = "COc1cccc(C(=O)NCCS(=O)(=O)NCC2CCCO2)c1 (centres undefined)"
group_label = "f"

[[record]]
compound = "COc1cc2[nH]c(=O)n(CCC(=O)NC3CCN(Cc4ccccc4)CC3)c(=O)c2cc1OC"
group_label = "f"

[[record]]
compound = "CC(C)C(NS(=O)(=O)c1cccs1)C(=O)Nc1nc(C(C)(C)C)cs1 (centres undefined)"
group_label = "t"

[[record]]
compound = "Cc1cc(C)c2nc(N3CCC(C(=O)NCCN4CCOCC4)CC3)sc2c1"
group_label = "f"

[[record]]
compound = "NC(=O)c1ccc(CN2CCC(Cc3ccccc3)CC2)cc1"
group_label = "f"

[[record]]
compound = "CC(CCN1CCN=C1N(C)C)c1ccccc1 (centres undefined)"
group_label = "f"

[[record]]
compound = "C=CCNC(=S)N/N=C/c1ccc(C)s1"
group_label = "t"

[[record]]
compound = "CCC(=O)c1ccc(OCC(=O)OCC(=O)NC2CCCCCC2)cc1"
group_label = "f"

[[record]]
compound = "COc1cc2[nH]c(=O)n(Cc3ccc(C(=O)NC4CCN(Cc5ccccc5)CC4)cc3)c(=O)c2cc1OC"
group_label = "t"

[[record]]
compound = "Cc1c(Cl)c([N+](=O)[O-])nn1CC(=O)NCCCN1CCOCC1"
group_label = "f"

[[record]]
compound = "COc1cc(/C=C/C(=O)O)cc(S(=O)(=O)Nc2ccccc2C(=O)NCCc2ccccc2)c1OC"
group_label = "f"

[[record]]
compound = "CN(CC(=O)NCc1ccc2c(c1)OCO2)CC(=O)Nc1ccc(F)c(F)c1F"
group_label = "f"

[[record]]
compound = "CCn1c(CC(=O)Nc2ccccc2C)nnc1SCC(=O)NC1=NCCS1"
group_label = "f"

[[record]]
compound = "COC(=O)Cc1ccc(OCC(=O)NC2CCCC2)cc1"
group_label = "f"

[[record]]
compound = "O=[N+]([O-])c1ccccc1S(=O)(=O)Nc1cccc2cccnc12"
group_label = "t"

[[record]]
compound = "CC(C)(C)c1csc(NC2=NS(=O)(=O)c3ccccc32)n1"
group_label = "f"

[[record]]
compound = "Cc1ccc(C(=O)NNC(=O)C(C)Oc2ccc3ccccc3c2)o1 (centres undefined)"
group_label = "f"

[[record]]
compound = "CCOc1cc2[nH]c(=O)n(Cc3ccc(C(=O)NCCCN4CCCC4=O)cc3)c(=O)c2cc1OCC"
group_label = "f"

[[record]]
compound = "CCCCn1c(N)c(N(CC)C(=O)c2ccccc2C(F)(F)F)c(=O)[nH]c1=O"
group_label = "f"

[[record]]
compound = "Cc1ccc(S(=O)(=O)N2CCOCC2)cc1NC(=O)COC(=O)c1cnccn1"
group_label = "f"

[[record]]
compound = "CC(=O)N1CCc2cc(S(=O)(=O)NC3CCCCC3)ccc21"
group_label = "f"

[[record]]
compound = "CCCCSCCCNC(=O)C1CCC(CNS(=O)(=O)c2ccc(NC(C)=O)cc2)CC1 (centres undefined)"
group_label = "f"

[[record]]
compound = "N#C/C=C/N1CCN(Cc2ccc3c(c2)OCO3)CC1"
group_label = "f"

[[record]]
compound = "CC(Oc1ccc(Br)cc1)C(=O)NCC(c1ccco1)N1CCCCC1 (centres undefined)"
group_label = "t"

[[record]]
compound = "O=C(NCCCN1CCCC1=O)C(=O)NCC1OCCN1S(=O)(=O)c1ccc(Br)cc1 (centres undefined)"
group_label = "f"

[[record]]
compound = "COc1ccc(CNC(=O)C(NS(=O)(=O)c2cccc3nsnc23)C(C)C)cc1 (centres undefined)"
group_label = "f"

[[record]]
compound = "Cc1ccccc1C(=O)NC(=S)Nc1ccc(N2CCN(C(=O)c3ccccc3)CC2)cc1"
group_label = "f"

[[record]]
compound = "Nc1ccn(C2CC(O)C(CO)O2)c(=O)n1 (centres undefined)"
group_label = "f"

[[record]]
compound = "CCOC(=O)C1CCN(Cc2c(C(=O)N3CCOCC3)nc3c(C)cccn23)CC1"
group_label = "f"

[[record]]
compound = "CCCCCc1c(C)nc(N2CCN(Cc3ccc4c(c3)OCO4)CC2)[nH]c1=O"
group_label = "f"

[[record]]
compound = "CCN1CCCC1Cn1cnc2c([nH]c3cc(OC)ccc32)c1=O (centres undefined)"
group_label = "f"

[[record]]
compound = "COc1cccc(CNS(=O)(=O)c2ccc3c(c2)N(C(C)=O)CCS3)c1"
group_label = "f"

[[record]]
compound = "COc1ccc(S(=O)(=O)NCC(c2ccco2)N2CCOCC2)cc1 (centres undefined)"
group_label = "f"

[[record]]
compound = "CCOC(=O)c1nnn(-c2nonc2OC)c1-c1ccccc1"
group_label = "f"

[[record]]
compound = "C=CCNC(=S)N/N=C/c1ccc(OCc2ccccc2)cc1"
group_label = "f"

[[record]]
compound = "CC(Oc1ccc(Br)cc1)C(=O)NC1CCCCCC1 (centres undefined)"
group_label = "f"

[[record]]
compound = "Cc1ccc(/C=N/NC(=O)CN2CCN(Cc3ccccc3)CC2)s1"
group_label = "f"

[[record]]
compound = "COC(=O)c1ccccc1NC(=O)CSc1nc2c(c(=O)[nH]1)CCC2"
group_label = "f"

[[record]]
compound = "Cc1ccccc1NC(=O)c1ccccc1NS(=O)(=O)c1cccc2cccnc12"
group_label = "f"

[[record]]
compound = "CCN(CC)Cc1c(C(=O)OC)nnn1-c1nonc1N"
group_label = "f"

[[record]]
compound = "Oc1c(C=Nc2cccc3nsnc23)ccc2ccccc12"
group_label = "f"

[[record]]
compound = "Cc1ccc(S(=O)(=O)N2CCCCC2)cc1C(=O)N(C)CC(=O)Nc1cccc(F)c1"
group_label = "f"

